SYSTEM: T1, APJ receptor (human, UniProt P35414 1-380)
T1 sequence (looked up): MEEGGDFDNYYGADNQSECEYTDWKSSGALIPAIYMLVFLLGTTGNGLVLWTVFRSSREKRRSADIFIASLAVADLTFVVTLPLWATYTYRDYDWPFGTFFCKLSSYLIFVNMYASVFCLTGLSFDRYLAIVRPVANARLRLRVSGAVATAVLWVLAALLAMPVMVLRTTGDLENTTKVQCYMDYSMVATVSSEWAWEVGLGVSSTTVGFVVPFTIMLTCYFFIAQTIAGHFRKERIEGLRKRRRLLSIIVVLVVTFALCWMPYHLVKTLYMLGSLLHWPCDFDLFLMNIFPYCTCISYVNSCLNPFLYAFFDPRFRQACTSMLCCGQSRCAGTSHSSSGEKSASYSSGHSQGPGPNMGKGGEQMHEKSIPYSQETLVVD
TEST_DETAILS: cell-based or functional assay
*1 amine or outer side, *2 acyl side, *3 side chain or, on linkers, in order; H or OH if unused. [ ]: non-standard residue; d: D form. Tyr(Bzl) = L-benzyl-tyrosine, O=C([C@H](Cc1ccc(OCc2ccccc2)cc1)N[*:1])[*:2]; Phe(3,4-Cl2) = N[C@@H](Cc1ccc(Cl)c(Cl)c1)C(=O)O; pGlu = O=C1CC[C@@H](C(=O)O)N1; dNle = CCCC[C@@H](N)C(=O)O; Aib = CC(C)(N)C(=O)O
QUANTITY: hAPJ Ca^2+ Flux EC50 (nM)

# BINDER, QUANTITY, UNIT_SPEC, REPORTED
measured = [
    ("[pGlu]RPR[dL]S[dA]KGP[dNle][dA][dF]-OH (SMILES CCCC[C@@H](NC(=O)[C@@H]1CCCN1C(=O)CNC(=O)[C@H](CCCCN)NC(=O)[C@@H](C)NC(=O)[C@H](CO)NC(=O)[C@@H](CC(C)C)NC(=O)[C@H](CCCNC(=N)N)NC(=O)[C@@H]1CCCN1C(=O)[C@H](CCCNC(=N)N)NC(=O)[C@@H]1CCC(=O)N1)C(=O)N[C@H](C)C(=O)N[C@H](Cc1ccccc1)C(=O)O) [pE-R-P-R-(D-Leu)-S-a-K-G-P-nle-a-f-OH]", "hAPJ Ca^2+ Flux EC50", "nM", 386),
    ("[pGlu]RPRL[dA]LKGP[dNle][dA][dF]-OH (SMILES CCCC[C@@H](NC(=O)[C@@H]1CCCN1C(=O)CNC(=O)[C@H](CCCCN)NC(=O)[C@H](CC(C)C)NC(=O)[C@@H](C)NC(=O)[C@H](CC(C)C)NC(=O)[C@H](CCCNC(=N)N)NC(=O)[C@@H]1CCCN1C(=O)[C@H](CCCNC(=N)N)NC(=O)[C@@H]1CCC(=O)N1)C(=O)N[C@H](C)C(=O)N[C@H](Cc1ccccc1)C(=O)O) [pE-R-P-R-L-a-L-K-G-P-nle-a-f-OH]", "hAPJ Ca^2+ Flux EC50", "nM", 4.4),
    ("[pGlu]RPR[Phe(3,4-Cl2)][dA]HKGP[dNle][dA][dF]-OH (SMILES CCCC[C@@H](NC(=O)[C@@H]1CCCN1C(=O)CNC(=O)[C@H](CCCCN)NC(=O)[C@H](Cc1c[nH]cn1)NC(=O)[C@@H](C)NC(=O)[C@H](Cc1ccc(Cl)c(Cl)c1)NC(=O)[C@H](CCCNC(=N)N)NC(=O)[C@@H]1CCCN1C(=O)[C@H](CCCNC(=N)N)NC(=O)[C@@H]1CCC(=O)N1)C(=O)N[C@H](C)C(=O)N[C@H](Cc1ccccc1)C(=O)O) [pE-R-P-R-(3,4-Cl2-F)-a-H-K-G-P-nle-a-f-OH]", "hAPJ Ca^2+ Flux EC50", "nM", 13.8),
    ("[pGlu]RPRLS[Aib][dK]GP[dNle][dA][dF]-OH (SMILES CCCC[C@@H](NC(=O)[C@@H]1CCCN1C(=O)CNC(=O)[C@@H](CCCCN)NC(=O)C(C)(C)NC(=O)[C@H](CO)NC(=O)[C@H](CC(C)C)NC(=O)[C@H](CCCNC(=N)N)NC(=O)[C@@H]1CCCN1C(=O)[C@H](CCCNC(=N)N)NC(=O)[C@@H]1CCC(=O)N1)C(=O)N[C@H](C)C(=O)N[C@H](Cc1ccccc1)C(=O)O) [pE-R-P-R-L-S-Aib-k-G-P-nle-a-f-OH]", "hAPJ Ca^2+ Flux EC50", "nM", 79.9),
    ("[pGlu]RPRLS[Aib]KGP[dNle][dA]F-OH (SMILES CCCC[C@@H](NC(=O)[C@@H]1CCCN1C(=O)CNC(=O)[C@H](CCCCN)NC(=O)C(C)(C)NC(=O)[C@H](CO)NC(=O)[C@H](CC(C)C)NC(=O)[C@H](CCCNC(=N)N)NC(=O)[C@@H]1CCCN1C(=O)[C@H](CCCNC(=N)N)NC(=O)[C@@H]1CCC(=O)N1)C(=O)N[C@H](C)C(=O)N[C@@H](Cc1ccccc1)C(=O)O) [pE-R-P-R-L-S-Aib-K-G-P-nle-a-F-OH]", "hAPJ Ca^2+ Flux EC50", "nM", 3.9),
    ("[pGlu]RPRL[dA]HKGP[dNle][dP][dF]-OH (SMILES CCCC[C@@H](NC(=O)[C@@H]1CCCN1C(=O)CNC(=O)[C@H](CCCCN)NC(=O)[C@H](Cc1c[nH]cn1)NC(=O)[C@@H](C)NC(=O)[C@H](CC(C)C)NC(=O)[C@H](CCCNC(=N)N)NC(=O)[C@@H]1CCCN1C(=O)[C@H](CCCNC(=N)N)NC(=O)[C@@H]1CCC(=O)N1)C(=O)N1CCC[C@@H]1C(=O)N[C@H](Cc1ccccc1)C(=O)O) [pE-R-P-R-L-a-H-K-G-P-nle-p-f-OH]", "hAPJ Ca^2+ Flux EC50", "nM", 1.1),
    ("[pGlu]RPRL[dA][dF]KGP[dNle][dA][dF]-OH (SMILES CCCC[C@@H](NC(=O)[C@@H]1CCCN1C(=O)CNC(=O)[C@H](CCCCN)NC(=O)[C@@H](Cc1ccccc1)NC(=O)[C@@H](C)NC(=O)[C@H](CC(C)C)NC(=O)[C@H](CCCNC(=N)N)NC(=O)[C@@H]1CCCN1C(=O)[C@H](CCCNC(=N)N)NC(=O)[C@@H]1CCC(=O)N1)C(=O)N[C@H](C)C(=O)N[C@H](Cc1ccccc1)C(=O)O) [pE-R-P-R-L-a-f-K-G-P-nle-a-f-OH]", "hAPJ Ca^2+ Flux EC50", "nM", 9.2),
    ("[pGlu]RPR[Tyr(Bzl)][dA]HKGP[dNle][dA][dF]-OH [pE-R-P-R-Y(Bzl)-a-H-K-G-P-nle-a-f-OH]", "hAPJ Ca^2+ Flux EC50", "nM", 121),
    ("[pGlu]RPRL[dK]HKGP[dNle][dA][dF]-OH (SMILES CCCC[C@@H](NC(=O)[C@@H]1CCCN1C(=O)CNC(=O)[C@H](CCCCN)NC(=O)[C@H](Cc1c[nH]cn1)NC(=O)[C@@H](CCCCN)NC(=O)[C@H](CC(C)C)NC(=O)[C@H](CCCNC(=N)N)NC(=O)[C@@H]1CCCN1C(=O)[C@H](CCCNC(=N)N)NC(=O)[C@@H]1CCC(=O)N1)C(=O)N[C@H](C)C(=O)N[C@H](Cc1ccccc1)C(=O)O) [pE-R-P-R-L-k-H-K-G-P-nle-a-f-OH]", "hAPJ Ca^2+ Flux EC50", "nM", 1060),
]
